- MEASURED ON: T1, human pIgR, full-length, on cells (human, UniProt P01833 19-764)
- T1 construct: whole, on cells; Used for the flow cytometry EC50 values (MDCK-hpIgR) and for the transcytosis read-outs; also called hpIgR; cell-surface hpIgR
- ASSAY PROCEDURE: flow cytometry on MDCK-hpIgR cells; summary table, repeats Table 1
ASSAY METRIC: pEC50
pEC50 is a log-scale quantity: -log10 of the concentration expressed in molar.

Reference set (3 entries):
VHH5-linker-mono-Fc protein (Fc fusion, made in CHO cells; also called VHH5-mono-Fc; hpIgR_175) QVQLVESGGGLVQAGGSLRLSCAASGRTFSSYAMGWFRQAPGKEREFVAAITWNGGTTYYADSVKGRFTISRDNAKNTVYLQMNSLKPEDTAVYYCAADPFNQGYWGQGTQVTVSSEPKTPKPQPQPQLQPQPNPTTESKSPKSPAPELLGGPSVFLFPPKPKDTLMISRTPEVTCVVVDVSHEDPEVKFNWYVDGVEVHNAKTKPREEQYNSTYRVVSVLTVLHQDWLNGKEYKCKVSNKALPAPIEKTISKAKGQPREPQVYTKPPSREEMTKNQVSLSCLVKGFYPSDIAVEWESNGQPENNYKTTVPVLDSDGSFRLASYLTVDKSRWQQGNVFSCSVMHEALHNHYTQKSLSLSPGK ... 8.37
VHH11-linker-mono-Fc protein (Fc fusion, made in CHO cells; also called VHH11-mono-Fc; hpIgR_250) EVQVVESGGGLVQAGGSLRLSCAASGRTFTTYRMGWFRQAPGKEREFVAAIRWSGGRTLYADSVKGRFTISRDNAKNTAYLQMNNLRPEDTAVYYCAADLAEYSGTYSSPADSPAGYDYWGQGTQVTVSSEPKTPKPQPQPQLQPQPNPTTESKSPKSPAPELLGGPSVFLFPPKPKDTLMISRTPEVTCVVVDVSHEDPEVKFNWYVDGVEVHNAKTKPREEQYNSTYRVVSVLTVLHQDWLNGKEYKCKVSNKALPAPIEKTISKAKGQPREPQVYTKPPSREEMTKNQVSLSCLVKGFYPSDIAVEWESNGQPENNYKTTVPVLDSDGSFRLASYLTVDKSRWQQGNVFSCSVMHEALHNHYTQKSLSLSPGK ... 8.82
VHH4-linker-mono-Fc protein (Fc fusion, also called VHH4-mono-Fc; hpIgR_073) EVQVVESGGGLVQAGGSLRLSCAVSGTSVSSNAMGWYRQAPGKQREWVGFIDRIATTTIATSVKGRFAITRDNAKNTVYLQMSGLKPEDTAVYYCNHPLTARWGQGTQVTVSSEPKTPKPQPQPQLQPQPNPTTESKSPKSPAPELLGGPSVFLFPPKPKDTLMISRTPEVTCVVVDVSHEDPEVKFNWYVDGVEVHNAKTKPREEQYNSTYRVVSVLTVLHQDWLNGKEYKCKVSNKALPAPIEKTISKAKGQPREPQVYTKPPSREEMTKNQVSLSCLVKGFYPSDIAVEWESNGQPENNYKTTVPVLDSDGSFRLASYLTVDKSRWQQGNVFSCSVMHEALHNHYTQKSLSLSPGK ... 7.48

Then there is this binder:
Entry VHH2-linker-mono-Fc protein (Fc fusion, also called VHH2-mono-Fc; mpIgR_338) EVQVVESGGGLVQAGGSLKLACAAPGLTFSSYRMGWFRQAPGQEREFVAAIDWNGRGTYYRYYADSVKGRSTISRDNAKNTVYLQMNSLKPEDTAVYYCAATTVLTDPRVLNEYATWGQGTQVTVSSEPKTPKPQPQPQLQPQPNPTTESKSPKSPAPELLGGPSVFLFPPKPKDTLMISRTPEVTCVVVDVSHEDPEVKFNWYVDGVEVHNAKTKPREEQYNSTYRVVSVLTVLHQDWLNGKEYKCKVSNKALPAPIEKTISKAKGQPREPQVYTKPPSREEMTKNQVSLSCLVKGFYPSDIAVEWESNGQPENNYKTTVPVLDSDGSFRLASYLTVDKSRWQQGNVFSCSVMHEALHNHYTQKSLSLSPGK ; pEC50 = 8.20
